Target: human FAAH (Fatty Acid Amide Hydrolase) (Homo sapiens, UniProt O00519)
Construct: The full length FAAH was subcloned into the mammalian expression vector, pcDEF.neo, using XbaI and EcoRI restriction sites; expressed in transfected cells
Test: FAAH whole cell assay on CHO cells expressing human FAAH (human WC), AAMCA fluorescent substrate
Type: cell-based
Conditions: human FAAH_CHO whole cell
Just so you know, the groups by IC50 go like this: A = under 30 nM, B = from 30 nM up to 300 nM, C = 300 nM and over

Solved cases below.
Would you mind sorting `Cn1cccc2c(Sc3ccc(Cl)cn3)c([C@H]3CC[C@H](O)CC3)nc1-2` into the appropriate category?
C

// same read-out, input: `CSc1ccc(-c2[nH]c3ncccc3c2Sc2ccc(Cl)cc2)cn1`
A

// same read-out, input: `Oc1ccc(-c2[nH]c3ncccc3c2Sc2ccc(Cl)cc2)cc1`
A

// same read-out, input: `OCCn1cccc2c(Sc3ccc(Cl)cc3)c(-c3ccc4c(c3)OCO4)nc1-2`
B

Next:
Would you mind sorting `O=C1NCc2cc(-c3[nH]c4ncccc4c3Sc3ccc(Cl)cc3)ccc21` into the appropriate category?
A

// same read-out, input: `N#Cc1cscc1-c1[nH]c2ncccc2c1Sc1ccc(Cl)cc1`
C

// same read-out, input: `CC(C)(O)/C=C/c1[nH]c2ncccc2c1Sc1ccc(Cl)cc1`
C

// same read-out, input: `CN(C)S(=O)(=O)c1ccc(-c2[nH]c3ncccc3c2Sc2ccc(Cl)cc2)cc1`
B

// same read-out, input: `Clc1ccc(Sc2c(CC3CCCCC3)[nH]c3ncccc23)cc1`
B

// same read-out, input: C[S+]([O-])c1ccc(-c2[nH]c3ncccc3c2Sc2ccc(Cl)cn2)cn1 (stereo not drawn)
B

// same read-out, input: N#CC1CC=C(c2[nH]c3ncccc3c2Sc2ccc(Cl)cc2)CC1 (stereo not drawn)
B

---

Molecular target: human FAAH (Fatty Acid Amide Hydrolase) (Homo sapiens)
Construct: The full length FAAH was subcloned into the mammalian expression vector, pcDEF.neo, using XbaI and EcoRI restriction sites; expressed in transfected cells
Assay: FAAH whole cell assay on CHO cells expressing human FAAH (human WC), AAMCA fluorescent substrate
Type: cell-based
Details: human FAAH_CHO whole cell
Cut-off 0.1 µM on IC50: below means Yes, at or above means No.

Quick check: IC50 of `Cn1cc2cc(-c3[nH]c4ncccc4c3Sc3ccc(Cl)cn3)ccc2n1` under 0.1 µM?
Yes

Next:
Quick check: IC50 of OC1CC=C(c2[nH]c3ncccc3c2Sc2ccc(Cl)cc2)CC1 (stereo not drawn) under 0.1 µM?
Yes

// same read-out, input: `O=C(NCc1ccc(O)c(O)c1)c1[nH]c2ncccc2c1Sc1ccc(Cl)cc1`
No

// same read-out, input: `O=C1CCC(c2[nH]c3ncccc3c2Sc2ccc(Cl)cc2)CC1`
Yes

// same read-out, input: `OCCCCc1[nH]c2ncccc2c1Sc1ccc(Cl)cc1`
No

// same read-out, input: `O=S(=O)(c1ccc(-c2[nH]c3ncccc3c2Sc2ccc(Cl)cn2)cc1)N1CCOCC1`
No

---

I'd be grateful if you could share measured pIC50 for these entries.
Biological target: human FAAH (Fatty Acid Amide Hydrolase) (Homo sapiens)
Construct: The full length FAAH was subcloned into the mammalian expression vector, pcDEF.neo, using XbaI and EcoRI restriction sites; expressed in transfected cells
Sequence (O00519 1-579): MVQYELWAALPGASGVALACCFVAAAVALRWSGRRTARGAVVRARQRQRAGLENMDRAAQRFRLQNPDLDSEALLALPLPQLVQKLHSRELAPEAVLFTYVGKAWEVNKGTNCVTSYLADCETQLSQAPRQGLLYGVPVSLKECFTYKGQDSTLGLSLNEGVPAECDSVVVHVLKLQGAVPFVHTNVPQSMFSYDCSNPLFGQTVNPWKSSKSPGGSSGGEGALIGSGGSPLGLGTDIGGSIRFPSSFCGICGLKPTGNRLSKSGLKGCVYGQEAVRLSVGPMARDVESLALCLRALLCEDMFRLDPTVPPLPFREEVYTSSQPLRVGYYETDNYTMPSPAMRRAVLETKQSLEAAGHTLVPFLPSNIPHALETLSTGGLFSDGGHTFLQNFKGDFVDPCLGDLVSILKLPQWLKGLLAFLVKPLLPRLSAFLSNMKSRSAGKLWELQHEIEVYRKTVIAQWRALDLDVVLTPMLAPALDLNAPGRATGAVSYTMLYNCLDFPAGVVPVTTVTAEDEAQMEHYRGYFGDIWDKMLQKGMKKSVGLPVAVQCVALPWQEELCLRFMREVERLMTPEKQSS
Test: FAAH enzyme assay on CHO cell lysate expressing human FAAH (human LY), AAMCA fluorescent substrate
Type: biochemical
Conditions: human FAAH_CHO cell lysate
Answers are plain numbers, as −log10 of the molar value.

// worked examples, pIC50 included
May I ask what pIC50 has been recorded for O=C(NCCO)C1CC=C(c2[nH]c3ncccc3c2Sc2ccc(Cl)cc2)CC1 (stereo not drawn) [Example B49] ?
7.62

// same read-out, input: OCCn1cccc2c(Sc3ccc(Cl)cc3)c(-c3ccc4c(c3)OCO4)nc1-2 [Example E12]
7.54

// same read-out, input: NS(=O)(=O)c1ccc(-c2[nH]c3ncccc3c2Sc2ccc(Cl)cn2)cc1 [Example A8]
8.22

// same read-out, input: CC(C)(O)c1ccc(-c2[nH]c3ncccc3c2Sc2ccc(Cl)cn2)cc1 [Example A13]
7.75

// same read-out, input: Clc1ccc(Sc2c(-c3ccc4c(c3)OCCO4)[nH]c3ncccc23)nc1 [Example B13]
8.54

Batch of 5 compounds: report pIC50 for each.
1. Cn1c2ncccc2c(Sc2ccc(Cl)cc2)c1[C@H]1CC[C@H](O)CC1 [Example E34]
2. CC(O)C/C=C/c1[nH]c2ncccc2c1Sc1ccc(Cl)cc1 (stereo not drawn) [Example B38]
3. O=C(Nc1ccc2c(c1)OCCO2)c1[nH]c2ncccc2c1Sc1ccc(Cl)cc1 [Example C14]
4. COc1cc(-c2nc3n(C)cccc-3c2Sc2ccc(Cl)cc2)cnc1OC [Example E8]
5. Cn1cccc2c(Sc3ccc(Cl)cn3)c([C@H]3CC[C@@H](O)CC3)nc1-2 [Example E23]

1. 8.15
2. 7.65
3. 8.13
4. 7.91
5. 6.83

Source listed as patent US20130059850A1.
